Provenance of the data: ChEMBL document CHEMBL1201861

Tested on: LU-165
method.summary: cells
Assay type: functional, cell-based, Homo sapiens
test.settings: Homo sapiens, LU-165
Description: SANGER: Inhibition of human LU-165 cell growth in a cell viability assay.
observation.type: IC50

compound: C=CC(=O)N1CCCC(Nc2nc(Nc3ccc(N(C)C(=O)CC)cc3)nc3[nH]cnc23)C1 (stereo not drawn)
observation.type: IC50
reported.value: > 10.2 µM
//
compound: COc1cc(N2CCC(N3CCN(C)CC3)CC2)ccc1Nc1ncc(Cl)c(Nc2ccccc2S(=O)(=O)C(C)C)n1
observation.type: IC50
reported.value: > 2 µM
//
compound: COc1ccc(N(C(=O)Oc2c(C)cccc2C)c2ccnc(Nc3ccc(N4CCN(C)CC4)cc3)n2)c(OC)c1
observation.type: IC50
reported.value: > 5.12 µM

---

System: SW48;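 note: growth inhibition of SW48 cells, read out with a cell viability assay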
method.summary: cells
Format: functional, cell-based
test.settings: Homo sapiens
Description: SANGER: Inhibition of human SW48 cell growth in a cell viability assay.
observation.type: IC50

structure.notation: CC1=C(/C=C/C(C)=C/C=C/C(C)=C/C(=O)O)C(C)(C)CCC1
reported.value: > 10 µM

structure.notation: NC1(c2ccc(-c3nc4ccn5c(=O)[nH]nc5c4cc3-c3ccccc3)cc2)CCC1
reported.value: > 4 µM

structure.notation: CS(=O)(=O)N1CCN(Cc2cc3nc(-c4cccc5[nH]ncc45)nc(N4CCOCC4)c3s2)CC1
reported.value: > 4 µM

---

System: TE-15
method.summary: cells
Type: functional, cell-based, Homo sapiens
test.settings: Homo sapiens, TE-15
Description: SANGER: Inhibition of human TE-15 cell growth in a cell viability assay.
# IC50 per entry
observation.type: IC50

structure.notation: COC(=O)[C@H](CCSC)NC(=O)c1ccc(NC[C@@H](N)CS)cc1-c1ccccc1
system: TE-15
reported.value: > 1.02 µM
//
structure.notation: NC(=O)c1cccc(-c2cc(Nc3ccc(OC(F)(F)F)cc3)ncn2)c1
system: TE-15
reported.value: > 1.28 µM
//
structure.notation: O=S(=O)(O)c1ccc2cc(/N=N/c3cc(S(=O)(=O)O)c4cccnc4c3O)ccc2c1
system: TE-15;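 note: cell viability readout of growth inhibition in TE-15 cells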
reported.value: > 16 µM

---

Listing: IC50 of selected compounds
Tested on: COLO-679
method.summary: cells
Assay type: functional, cell-based
test.settings: Homo sapiens
Description: SANGER: Inhibition of human COLO-679 cell growth in a cell viability assay.

structure.notation: Cc1ccc(C(=O)Nc2ccc(CN3CCN(C)CC3)c(C(F)(F)F)c2)cc1C#Cc1cnc2cccnn12
IC50: > 512 nM
--
structure.notation: NC1(c2ccc(-c3nc4ccn5c(=O)[nH]nc5c4cc3-c3ccccc3)cc2)CCC1
IC50: > 4000 nM
--
structure.notation: O=C1NC(=O)c2c1c(-c1ccccc1Cl)cc1[nH]c3ccc(O)cc3c21
IC50: > 2000 nM

---

Tested on: KGN
method.summary: cells
Assay type: functional, cell-based, Homo sapiens
test.settings: Homo sapiens, KGN
Description: SANGER: Inhibition of human KGN cell growth in a cell viability assay.
pIC50: −log10 of the molar value. Where a SMILES comes first, the peptide text is derived from it. The star is where a group is joined. Cbz = O=C(OCc1ccccc1)*
List of pIC50 values.

molecule: NC(=O)c1ccc(N(C(N)=O)c2c(F)cccc2F)nc1-c1ccc(F)cc1F
pIC50: < 5.70
--
molecule: CC(C)C[C@@H](C=O)NC(=O)[C@H](CC(C)C)NC(=O)[C@H](CC(C)C)NC(=O)OCc1ccccc1 [MG-132] (Cbz-Leu-Leu-Leu-aldehyde)
pIC50: < 6.00
--
molecule: CN(NC(=O)CC(=O)NN(C)C(=S)c1ccccc1)C(=S)c1ccccc1
pIC50: < 6.70
--
molecule: Cc1ccc(C(=O)Nc2ccc(CN3CCN(C)CC3)c(C(F)(F)F)c2)cc1C#Cc1cnc2cccnn12
pIC50: < 6.29
